Recorded values, source the supplement of paper PMC10567573.

B1: DVL3 (parent)
chain: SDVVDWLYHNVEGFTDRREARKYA

Variants of: B1
Experiment: protein stability index of a GFP-peptide fusion (GPS, HEK-293T) (PSI 1-6); higher = more stable;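 note: lentivirally expressed fusions sorted by FACS into six bins by GFP to DsRed ratio, PSI derived from sequencing read proportions per bin multiplied by bin number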
Conditions: c terminus: a fixed tail appended
measurementName: protein stability index

[[record]]
mutantlabel = "V4R"
value = 3.84

[[record]]
mutantlabel = "K22H"
value = 3

[[record]]
mutantlabel = "E12M"
value = 2.01

[[record]]
mutantlabel = "D5L"
value = 1.41

[[record]]
mutantlabel = "R17K"
value = 3.7

[[record]]
mutantlabel = "L7S"
value = 4.75

[[record]]
mutantlabel = "H9G"
value = 3.32

[[record]]
mutantlabel = "Y8P"
value = 4.51

[[record]]
mutantlabel = "W6P"
value = 4.86

[[record]]
mutantlabel = "L7P"
value = 3.63

[[record]]
mutantlabel = "F14N"
value = 3.61

[[record]]
mutantlabel = "A20T"
value = 3.16

[[record]]
mutantlabel = "E19G"
value = 3.02

[[record]]
mutantlabel = "R18T"
value = 3.59

[[record]]
mutantlabel = "V4N"
value = 3.89

[[record]]
mutantlabel = "F14E"
value = 4.77

[[record]]
mutantlabel = "R21E"
value = 3.57

[[record]]
mutantlabel = "A24C"
value = 3.45

[[record]]
mutantlabel = "V11A"
value = 2.8

[[record]]
mutantlabel = "R21A"
value = 2.48

[[record]]
mutantlabel = "W6S"
value = 4.76

[[record]]
mutantlabel = "D16V"
value = 2.24

